- targetUnderTest: IL-2 (C013, Novoprotein) (UniProt P60568 21-153)
- Sequence (P60568 21-153 limits assumed): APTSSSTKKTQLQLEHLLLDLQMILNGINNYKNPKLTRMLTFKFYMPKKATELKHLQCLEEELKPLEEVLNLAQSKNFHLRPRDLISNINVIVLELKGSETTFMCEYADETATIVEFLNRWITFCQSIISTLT
- assayProcedure: SPR (Biacore T200), antibody captured on Protein A chip, IL-2 analyte, 1:1 model
measuredParameter: pKd
Numbers only, as −log10 of the molar value.

Solved entries:
| binder | numericValue |
| --- | --- |
| A2-22 full-length fully human anti-IL-2 antibody (antibody, human IgG1, kappa, L234A L235A, V domains shown, Human IgG1 with L234A/L235A (LALA), kappa light chain; expressed in HEK293) VH: QVQLVQSGAEVKKPGASVKVSCKASGYTFTSYYMHWVRQAPGQGLEWMGIINPSGGSTSYAQKFQGRVTMTRDTSTSTVYMELSSLRSEDTAVYYCAREDWMEYEYYYGMDVWGQGTLVTVSS VL: EIVLTQSPGTLSLSPGERATLSCRASQSVSNNYLAWYQQKPGQAPRLLIYGASSRATGIPDRFSGSGSGTDFTLTISRLEPEDFAVYSCQQYGSSPLTFGQGTRLEIKR | 7.40 |
| D2-60 full-length fully human anti-IL-2 antibody (antibody, human IgG1, kappa, L234A L235A, V domains shown, Human IgG1 with LALA mutation, kappa light chain) VH: QVQLVQSGAEVKKPGASVKVSCKASGYTFTSYGISWVRQAPGQGLEWMGWISAYNGNTNYAQKLQGRVTMTTDTSTSTAYMELRSLRSDDTAVYYCAREYSSWYSGGMDVWGQGTTVTVSS VL: DIQMTQSPSSLSASVGDRVTITCRASQGISNYLAWYQQKPGKVPKLLIYAASTLQSGVPSRFSGSGSGTDFTLTISSLQPEDVATYYCQKYDSAPFTFGQGTRLEIKR | 7.89 |
| C2-53 full-length fully human anti-IL-2 antibody (antibody, human IgG1, kappa, L234A L235A, V domains shown, Human IgG1 with LALA mutation, kappa light chain) VH: EVQLVESGGGLVQPGRSLILSCAASGFTFDDYAMHWVRQAPGKGLEWVSGISWNSGSIGYADSVKGRFTISRDNAKNSLYLQMNSLRAEDTALYYCAKDQLRWGTYYYYGMDVWGQGTTVTVSS VL: DIQMTQSPSTLSASVGDRVTITCRASQSVSIWVAWYQQKPGKAPKLLIYKASSLERGVPTRFSGSGSGTEFTLTISSLQPEDFATYHCQQYDTGATFGQGTKVEMKR | 9.57 |

Then there is this binder:
Record D3-68 full-length fully human anti-IL-2 antibody (antibody, human IgG1, kappa, L234A L235A, V domains shown, Human IgG1 with LALA mutation, kappa light chain) VH: QVQLVQSGPEVKKPGASVKVSCKASGYTFTSYGISWVRRAPGQGLEWMGWISAYNGNTNYAQKLQGRVTMTTDTSTSTAYMELRSLRSDDTAVYYCARDLQSPTYYYGSGVIDYWGQGTLVTVSS VL: DIQLTQSPSTLSASVGDRVTISCRASRAVSPWLAWYQHRPGQAPKLLIYAASSLQSGVPSRFSGSGSGTDFTLTISSLQPEDFATYYCQQYRSYPFTFGPGTTVDIRR , field pKd: 8.33
